The measured values listed here are drawn from PubChem BioAssay AID1745848.

Assay: Confirmatory qHTS for Inhibitors of ATXN expression; also: nearly all actives have a fitted effect of over 65% in size
Details: ATXN2-luciferase reporter cells, luminescence, 24 h; series mostly up to 11.5 µM
Hit rate of the full screen: of about 2,100 compounds, about 940 (45%) were called active. About 48% were inconclusive and are not listed. Calls follow the shape of the dose curve; as a rule, active = well fitted inhibition curve with a large enough effect; inconclusive = small, poorly fitted or top-dose-only effect; inactive = no such curve, though single readings can be large or run the other way. So high a share suggests a set chosen from earlier hits. Some of the results follow.
The reply should be one of these categories: active, inactive

Study these solved cases before continuing.
OCCN1CCN(C(=S)c2ccc(-c3ccccc3)cc2)CC1; active
CCc1ccccc1OCC(=O)Nc1nc(-c2cccnc2)cs1; active
N/C(=C\C(=O)c1cc(Cl)ccc1O)C(Cl)(Cl)Cl; active
NC(Cc1ccc(F)cc1)c1csc(NC(=O)NC(c2ccccc2)c2ccccc2)n1 (stereo not drawn); active
Oc1ccc2ccccc2c1/C=C/c1ccc2c(Br)cc(Br)c(O)c2n1; active
COc1ccc(N(C(=O)c2snc(C(N)=O)c2N)C(C(=O)NCc2ccc(F)cc2)c2ccc(O)cc2)cc1 (stereo not drawn); inactive
COc1cccc2c1C(CO)N1C(C#N)C3CC(C(=O)O)C(C1C2)N3C (stereo not drawn); active
Cc1cc(C)cc(NC(=O)CSc2nc3nc(C)cc(C)c3c(=O)[nH]2)c1; active
O=C(/C=C/Nc1ccc(S(=O)(=O)Nc2ncccn2)cc1)c1ccc(Cl)c(Cl)c1; inactive
C/C(=N\NC(=O)C1COc2ccccc2O1)c1ccccn1 (stereo not drawn); active

Call for entry "CC(C)(C)c1nnc(N/N=C/c2ccccc2O)n(N)c1=O" : active

Can you handle "C/C(=N\NC(=O)Cc1ccc(Cl)cc1)c1ccccc1O" next? active

Can you handle "COc1ccccc1N(CC(=O)N/N=C(\C)c1ccccc1O)S(=O)(=O)c1ccc(C)cc1" next? active

Can you handle "Cc1cc(C)cc(C(=O)NC(=S)Nc2ccc(-c3cc4ccccc4oc3=O)cc2)c1" next? active

Can you handle CCN1CCN(C(c2ccc(C(F)(F)F)cc2)c2ccc3cccnc3c2O)CC1 (stereo not drawn) next? active

Can you handle "CCN(CC)S(=O)(=O)c1cccc(C(=O)N/N=C(\C)c2ccc(O)cc2O)c1" next? active

----------
Test: Confirmatory qHTS for Inhibitors of ATXN expression; also: nearly all actives have a fitted effect of over 65% in size; also: potency is read from the fitted curve at half-maximal effect
Conditions: ATXN2-luciferase reporter cells, luminescence, 24 h; series mostly up to 11.5 µM
About 940 (45%) of roughly 2,100 compounds were called active. Not shown: some 48% with an inconclusive outcome. So high a share suggests a set chosen from earlier hits. This is one part of the list.
Potency values for the compounds below.

Consider the compound shown here: COc1ccc(C(NC(C)=O)c2cc(Cl)c3cccnc3c2O)cc1 (stereo not drawn) What is its recorded Potency? 1.78 µM (active)

Can you handle "COc1cccc(/C=N/n2c(N)c(S(=O)(=O)c3cccs3)c3nc4ccccc4nc32)c1OC" next? 14.1 µM (active)

Can you handle CCOC(=O)c1c(NC(=O)C(Sc2ccccc2)c2ccccc2)sc(C(=O)N(C)C)c1C (stereo not drawn) next? 25.1 µM (active)

Can you handle "O=C(N/N=C\c1c(O)ccc2ccccc12)c1ccc(Cn2cccn2)o1" next? 0.708 µM (active)

Can you handle "Cc1ccc(Cl)cc1-c1ccc(C=Nc2ccc(N3CCOCC3)cc2)o1" next? 12.6 µM (active)

Can you handle "CCOC(=O)c1c(NC(=O)/C=C/C(=O)O)sc(C)c1-c1ccc(Cl)cc1" next? 25.1 µM (active)

Can you handle CCC(=O)NC(c1ccco1)c1cc(Cl)c2cccnc2c1O (stereo not drawn) next? 2.82 µM (active)
